Entries and their self-cleavage kobs at 640 uM GlcN6P values follow.
B1: glmS ribozyme (parent)
chain: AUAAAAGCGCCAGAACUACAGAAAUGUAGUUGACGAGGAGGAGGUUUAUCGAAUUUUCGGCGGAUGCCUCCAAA

variants of: B1; test: self-cleavage kobs at 640 uM GlcN6P; higher = faster cleavage; RNA array; conditions: with glucosamine-6-phosphate
Variants at the floor of the assay were thinned out.

Guide cases for self-cleavage kobs at 640 uM GlcN6P, answers given:
{"columns": ["residue.codes", "self-cleavage kobs at 640 uM GlcN6P"],
 "data": [
  ["AUAAAAGCACCUGAACUACAGAAAUGUAGUUGACGAGGAGGAGGUUUAACGAAUUUUCGGCGGAUGCCUCCAAA [G9A A12U U49A]", "< 1e-05 s⁻¹"],
  ["AUAAAAGCGCCAGAACUACAGAAAUGUAGUUUACGAGGAGGAGGUUUAUCGAAUUUUCGUCGGAUGCCUCCAAA [G32U G60U]", "< 1e-05 s⁻¹"],
  ["AUAAAAGCGCCAGAACUACAGAAAUGUAGUUGACGAGGAGCAGGUUUAUCGAAUUUUCGGCGGAUGUCUCCAAA [G41C C67U]", "< 1e-05 s⁻¹"],
  ["AUAAAAGCGCCGGAACUACAGAAAUGUAGUUGACGAAGAGGAGGUUUGUCGAAUUUUCGGCGCAUGCCUCCAAA [A12G G37A A48G G63C]", "< 1e-05 s⁻¹"],
  ["AUAAAAGCGCCAGAACUACAGAAAUGUAGUUGAAGAGGAGGAGGUUUAUCAGAUUUUCGGCGGAUGCCUCCAAA [C34A G51A A52G]", "< 1e-05 s⁻¹"],
  ["AUAAAAGCGCCAGAACUACAGAAAUGUAGUUGACAAGGAGCAGGUUUAUCGAAUUUUCGGCGGAUGCCACCAAA [G35A G41C U69A]", "< 1e-05 s⁻¹"],
  ["AUAAAAGCGCCAGAACUACAGAAAUGUAGUUGACGAGGAGGAGGGUUUUCGAAUUUUCGGCGGAUGCCUCCAAA [U45G A48U]", "5.51e-05 s⁻¹"],
  ["AUAAAUGCGCCAGAAUUACAGAAAUGUAGUUGACGAGGAUGAGGUUUAUCGAAUUUUCGGCGGAUGACUCCAAA [A6U C16U G40U C67A]", "< 1e-05 s⁻¹"]
]}

For the variant AUAAAAGCGCCAGGACUACAGAAAUGUAGUUGACGAGGAGGCGGUUUAUCGAAUUUUCGGCGUAUGCCUCCAAA [A14G A42C G63U] , report self-cleavage kobs at 640 uM GlcN6P. < 1e-05 s⁻¹

Specify reported self-cleavage kobs at 640 uM GlcN6P for the variant shown: AUAAAAGCGCCAGAACUACAGAAAUGUAGUUGAGGAUGAGGAGGUUUAUCGAAUUUUCGGCGGAUGCCUCCAAA [C34G G37U] < 1e-05 s⁻¹

Identify the reported self-cleavage kobs at 640 uM GlcN6P for the following entry. AUAAAAGCGCAAGAACUACAGAAAUGUAGUUGACGAGGAGGAGGUUUAUCGAAUUUUAGGCGGAUGCCUCCAAA [C11A C58A] < 1e-05 s⁻¹

Provide one value: measured self-cleavage kobs at 640 uM GlcN6P of AUAAAAGCGCCAGAACUACAGAAAUGUAGUUGACGAGGAGGAGCUUUAUCGAAUUUUCGGCGGAGGCCUCCAAA [G44C U65G] < 1e-05 s⁻¹

Supply reported self-cleavage kobs at 640 uM GlcN6P belonging to this variant: AUAAAAGCGCCAGAACUACAGAAAUGUAGUUGACGAGGAGGCGGUUUAUCGAAUUUUCGGGGGAUGCCUCCAAA [A42C C61G] < 1e-05 s⁻¹
